Target: benzodiazepine receptor
Assay: Binding test to benzodiazepine receptor (inhibition of specific binding of tritium labeled diazepam)
Settings: 2 nM tritium labeled diazepam, rat cerebral cortex, 0° C., 60 minutes; Ki calculated from IC50
Protocol: Binding test to benzodiazepine receptor This test was carried out in the modified method of Moeler & Okada, Science, 198, 849-851 (1977). Receptor preparation was provided from the cerebral cortex of Wistar rats (male, 11 to 13 weeks age). Inhibitory action of the test compound on the specific binding of tritium labeled diazepam to the receptor was evaluated as follows. […]
Response field class: enum, chosen by comparing Ki against low class: < 0.3 nM; middle class: ≥ 0.3 nM and < 0.6 nM; high class: ≥ 0.6 nM

> print(dat)
                                smiles.text  class.assignment
1  Cc1ccc2c3nn(-c4csc(C)c4)c(=O)c-3c[nH]c2c1        high class
2  Cc1ccc(-n2nc3c4cc(Cl)ccc4[nH]cc-3c2=O)s1      middle class
3   Cc1cc(-n2nc3c4cc(F)ccc4[nH]cc-3c2=O)cs1         low class
4   Cc1ccc(-n2nc3c4cc(F)ccc4[nH]cc-3c2=O)s1         low class

Which class is correct for the following compound? `Cc1cc(-n2nc3c4cc(Cl)ccc4[nH]cc-3c2=O)cs1`
middle class

Which class is correct for the following compound? `COc1ccc2[nH]cc3c(=O)n(-c4csc(C)c4)nc-3c2c1`
middle class

Which class is correct for the following compound? `Cc1ccc(-n2nc3c4ccc(Cl)cc4[nH]cc-3c2=O)s1`
high class

Which class is correct for the following compound? `CCc1ccc(-n2nc3c4ccccc4[nH]cc-3c2=O)s1`
high class

Which class is correct for the following compound? `COc1ccc2[nH]cc3c(=O)n(-c4ccc(C)s4)nc-3c2c1`
low class
